# Species: Rattus norvegicus
# Protocol Summary: DrugMatrix - Regimen: Daily Repeat
# Format: toxicity, organism-based, Sprague-Dawley
# Parameters: regimen Daily Repeat, gender Male, age 6-8 weeks
# Experimental Context: in vivo, iv, 0 mg/kg, 72 h, tissue Blood, dose level Control, time 3 day, vehicle 100 % SALINE
Starred links: 1 amine or outer side, 2 acyl side, 3 side chain; linkers in the order of their positions; H or OH if unused. Positions of bridges follow the written chain, without caps; N, C: chain ends. Non-standard residues stand in square brackets, D forms with d. Residues, ends and D or L forms follow the SMILES beside them. Chains are numbered I, II in the order given. Actinocin(9to1) = Cc1c2oc3c(C)ccc(C(=O)[*:1])c3nc-2c(C(=O)[*:2])c(N)c1=O; NMeV = CN[C@H](C(=O)O)C(C)C; Sar = CNCC(=O)O
Recorded Endpoint: PLATELET COUNT (x10E3/uL)
One number for each entry, in x10E3/uL.

CC[C@]1(O)C[C@H]2CN(CCc3c([nH]c4ccccc34)[C@@](C(=O)OC)(c3cc4c(cc3OC)N(C=O)[C@H]3[C@@](O)(C(=O)OC)[C@H](OC(C)=O)[C@]5(CC)C=CCN6CC[C@]43[C@@H]65)C2)C1    865
Cc1c2oc3c(C)ccc(C(=O)N[C@@H]4C(=O)N[C@H](C(C)C)C(=O)N5CCC[C@H]5C(=O)N(C)CC(=O)N(C)[C@@H](C(C)C)C(=O)O[C@@H]4C)c3nc-2c(C(=O)N[C@@H]2C(=O)N[C@H](C(C)C)C(=O)N3CCC[C@H]3C(=O)N(C)CC(=O)N(C)[C@@H](C(C)C)C(=O)O[C@@H]2C)c(N)c1=O [DACTINOMYCIN] (I: T[dV]P[Sar][NMeV] / II: T[dV]P[Sar][NMeV]; ester I:1-I:C, II:1-II:C; linker I:N-II:N via Actinocin(9to1))    1114.5
Cc1ccc(N(CC2=NCCN2)c2cccc(O)c2)cc1    1295.5

Problem: Look up PLATELET COUNT for this compound: COc1cc2c3cc1Oc1cc(ccc1O)C[C@@H]1c4c(cc(OC)c(O)c4Oc4ccc(cc4)C[C@@H]3N(C)CC2)CC[N+]1(C)C.[Cl-]
Result: 824
